Molecular target: T1, recombinant human glycophorin A ectodomain protein (human, UniProt P02724 20-91)
T1 construct: 72 amino acids of the extracellular region; also called Hu-rec GPA
T1 sequence: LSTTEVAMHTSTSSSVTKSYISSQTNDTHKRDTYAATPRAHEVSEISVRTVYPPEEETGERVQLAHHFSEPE
Test: ELISA, Fab on coated recombinant human GPA ectodomain
Field: binding in ELISA relative to parental Fab. Provide a value for each of the binders that follow.

Look over these answered cases.
TPP-5676, Hu6C12-24 Fab variant VH: (I48M, D66G) (Fab, V domains shown, Built on the parental Fab TPP-4935) VH: EVQLVQSGAEVKKPGASVKVSCKASGYTFTTYTIHWVRQAPGQGLEWMGYINPSSDYTRYNPKFKGRVTLTTDKSTSTAYMELRSLRSDDTAVYYCQTGTRDYWGQGTTVTVSS VL: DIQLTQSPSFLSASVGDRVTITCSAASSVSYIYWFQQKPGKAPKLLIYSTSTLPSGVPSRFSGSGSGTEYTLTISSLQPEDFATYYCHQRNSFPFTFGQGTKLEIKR ... 1.5 relative to parental Fab
TPP-5906, humanized and germlined 6C12 Fab; VL: (S24R, A26S, S49A, P54Q, F95Y); VH: (I48M, D56G, D66G, L70M, T72R) (Fab, V domains shown, The text says that a 6xHIS tag is present on the Fabs in the peptide ELISA; it is not in the printed chains) VH: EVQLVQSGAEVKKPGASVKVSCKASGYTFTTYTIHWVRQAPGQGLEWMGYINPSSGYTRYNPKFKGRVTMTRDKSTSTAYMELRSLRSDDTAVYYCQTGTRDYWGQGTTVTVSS VL: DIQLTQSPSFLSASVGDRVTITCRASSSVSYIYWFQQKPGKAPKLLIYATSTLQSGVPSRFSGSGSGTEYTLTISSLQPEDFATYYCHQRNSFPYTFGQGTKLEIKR ... 7.2 relative to parental Fab

For the 3 binders below, give their binding in ELISA relative to parental Fab values.
1. TPP-5698, Hu6C12-24 Fab variant VL: (S24R, A26S) (Fab, V domains shown, Built on the parental Fab TPP-4935) VH: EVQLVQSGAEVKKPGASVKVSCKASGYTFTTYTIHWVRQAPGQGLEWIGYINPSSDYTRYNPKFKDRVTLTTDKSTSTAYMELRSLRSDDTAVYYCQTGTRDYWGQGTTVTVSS VL: DIQLTQSPSFLSASVGDRVTITCRASSSVSYIYWFQQKPGKAPKLLIYSTSTLPSGVPSRFSGSGSGTEYTLTISSLQPEDFATYYCHQRNSFPFTFGQGTKLEIKR
2. TPP-5675, Hu6C12-24 Fab variant VH: (I48M, L70M, T72R) (Fab, V domains shown, Built on the parental Fab TPP-4935) VH: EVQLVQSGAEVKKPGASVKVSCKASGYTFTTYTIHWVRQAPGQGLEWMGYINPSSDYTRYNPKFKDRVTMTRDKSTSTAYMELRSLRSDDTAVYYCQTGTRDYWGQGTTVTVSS VL: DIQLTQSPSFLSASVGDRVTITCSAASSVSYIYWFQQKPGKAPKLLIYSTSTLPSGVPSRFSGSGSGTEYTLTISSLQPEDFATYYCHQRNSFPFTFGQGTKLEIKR
3. TPP-5702, Hu6C12-24 Fab variant VL: (S24R, A26S, S49A, P54Q, F95Y) (Fab, V domains shown, Built on the parental Fab TPP-4935) VH: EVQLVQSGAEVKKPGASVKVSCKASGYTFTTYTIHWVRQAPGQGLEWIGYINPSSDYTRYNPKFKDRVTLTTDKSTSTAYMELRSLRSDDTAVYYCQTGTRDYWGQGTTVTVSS VL: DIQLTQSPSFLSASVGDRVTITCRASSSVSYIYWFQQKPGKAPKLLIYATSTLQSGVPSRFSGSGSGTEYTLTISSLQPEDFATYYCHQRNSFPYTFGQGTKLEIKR

["1.7 relative to parental Fab", "1.1 relative to parental Fab", "4.3 relative to parental Fab"]

For the 2 binders below, give their binding in ELISA relative to parental Fab values.
1. TPP-5678, Hu6C12-24 Fab variant VH: (I48M, D66G, L70M, T72R) (Fab, V domains shown, Built on the parental Fab TPP-4935) VH: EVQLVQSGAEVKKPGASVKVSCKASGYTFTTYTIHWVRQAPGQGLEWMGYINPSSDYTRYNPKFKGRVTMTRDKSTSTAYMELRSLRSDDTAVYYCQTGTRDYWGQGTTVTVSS VL: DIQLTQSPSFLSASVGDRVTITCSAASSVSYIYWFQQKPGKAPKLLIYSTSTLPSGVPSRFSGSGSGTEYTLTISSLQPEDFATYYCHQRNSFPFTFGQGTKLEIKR
2. TPP-5677, Hu6C12-24 Fab variant VH: (I48M, D66G, L70M) (Fab, V domains shown, Built on the parental Fab TPP-4935) VH: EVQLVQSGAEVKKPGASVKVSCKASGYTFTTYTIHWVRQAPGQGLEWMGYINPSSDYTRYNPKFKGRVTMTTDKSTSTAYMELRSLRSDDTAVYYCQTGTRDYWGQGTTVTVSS VL: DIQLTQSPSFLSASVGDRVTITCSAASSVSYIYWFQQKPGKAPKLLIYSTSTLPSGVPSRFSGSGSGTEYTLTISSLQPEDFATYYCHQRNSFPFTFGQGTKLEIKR

["1.1 relative to parental Fab", "1.8 relative to parental Fab"]

Here are 3 binders. What values of binding in ELISA relative to parental Fab were reported for them?
1. TPP-5701, Hu6C12-24 Fab variant VL: (S49A, P54Q, F95Y) (Fab, V domains shown, Built on the parental Fab TPP-4935) VH: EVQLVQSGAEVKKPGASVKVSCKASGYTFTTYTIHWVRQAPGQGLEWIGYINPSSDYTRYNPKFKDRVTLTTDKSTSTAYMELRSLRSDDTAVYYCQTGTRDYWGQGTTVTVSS VL: DIQLTQSPSFLSASVGDRVTITCSAASSVSYIYWFQQKPGKAPKLLIYATSTLQSGVPSRFSGSGSGTEYTLTISSLQPEDFATYYCHQRNSFPYTFGQGTKLEIKR
2. TPP-5841, Hu6C12-24 Fab variant VL: (S24R, A26S, S49A, P54Q, F95Y); VH: (D66G, L70M) (Fab, V domains shown, Built on the parental Fab TPP-4935) VH: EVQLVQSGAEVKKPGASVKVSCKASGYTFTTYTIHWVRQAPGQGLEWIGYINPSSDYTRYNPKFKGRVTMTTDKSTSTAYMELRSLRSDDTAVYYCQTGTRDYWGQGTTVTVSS VL: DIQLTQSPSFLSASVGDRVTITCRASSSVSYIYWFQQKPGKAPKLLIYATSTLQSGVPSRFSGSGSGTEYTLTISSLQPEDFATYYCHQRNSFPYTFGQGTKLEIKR
3. TPP-5674, Hu6C12-24 Fab variant VH: (I48M, L70M) (Fab, V domains shown, Built on the parental Fab TPP-4935) VH: EVQLVQSGAEVKKPGASVKVSCKASGYTFTTYTIHWVRQAPGQGLEWMGYINPSSDYTRYNPKFKDRVTMTTDKSTSTAYMELRSLRSDDTAVYYCQTGTRDYWGQGTTVTVSS VL: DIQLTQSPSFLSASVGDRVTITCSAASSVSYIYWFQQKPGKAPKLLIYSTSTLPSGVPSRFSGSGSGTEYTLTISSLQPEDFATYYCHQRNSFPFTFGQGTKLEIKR

3.9 relative to parental Fab
4.7 relative to parental Fab
1.5 relative to parental Fab
